- system name: T1, human glucagon-like peptide-2 receptor (human, UniProt O95838 1-553)
- T1 sequence (looked up): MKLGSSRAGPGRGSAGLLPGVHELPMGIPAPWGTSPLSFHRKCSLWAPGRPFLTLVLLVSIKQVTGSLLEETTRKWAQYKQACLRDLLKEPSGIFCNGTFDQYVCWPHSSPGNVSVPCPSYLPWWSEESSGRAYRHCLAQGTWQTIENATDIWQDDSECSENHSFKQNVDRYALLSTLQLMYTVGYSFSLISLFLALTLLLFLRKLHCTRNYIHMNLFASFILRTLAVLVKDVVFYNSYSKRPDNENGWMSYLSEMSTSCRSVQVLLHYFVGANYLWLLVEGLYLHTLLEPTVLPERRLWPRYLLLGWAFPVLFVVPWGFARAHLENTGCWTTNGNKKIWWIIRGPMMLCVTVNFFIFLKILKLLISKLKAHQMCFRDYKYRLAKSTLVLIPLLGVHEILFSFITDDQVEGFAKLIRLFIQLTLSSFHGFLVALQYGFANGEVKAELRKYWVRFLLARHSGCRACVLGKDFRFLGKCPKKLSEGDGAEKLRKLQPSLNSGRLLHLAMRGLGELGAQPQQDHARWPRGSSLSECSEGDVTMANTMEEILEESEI
- method description: cell-based or functional assay
*1 amine or outer side, *2 acyl side, *3 side chain or, on linkers, in order; H or OH if unused. Side-chain parts run from the residue outwards. [ ]: non-standard residue; d: D form. The star is where a group is joined. C16 diacid = O=C(O)CCCCCCCCCCCCCCC(=O)*; γGlu = O=C(O)[C@H](CCC(=O)[*:2])N[*:1]; Palmitoyl = CCCCCCCCCCCCCCCC(=O)*; Aib = CC(C)(N)C(=O)O
observed property: Efficacy GLP-2R (%)

Reference set, count: 3
q: Which Efficacy GLP-2R is listed for {C16 diacid}-H[Aib]DGTFISDYST[Aib]LDNLAAKDFINWLIQTKITKNDWKHNITQ-OH [Compound no. 42] ?
a: 93

q: Which Efficacy GLP-2R is listed for Palmitoyl-HADGTFISDYSTILD[Aib]LAARDFINWLIQTKITKNDWKHNITQ-OH [Compound no. 16] ?
a: 64

q: Which Efficacy GLP-2R is listed for Ac-H[Aib]DGTFISDYK([γGlu-Palmitoyl])T[Aib]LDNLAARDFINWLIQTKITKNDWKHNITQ-OH [Compound no. 38] ?
a: 89

P = Palmitoyl-HADGTFISDYSTILELLAARDFINWLIQTKITKNDWKHNITQ-OH [Compound no. 15]
Q = H-H[Aib]DGTFISDYK([γGlu-Palmitoyl])TILDNLAARDFINWLIQTKGKKNDWKHNITQ-NH2 [Compound no. 14]
q: Two entries are listed, P and Q . Which one carries the higher Efficacy GLP-2R? Indicate your choice by writing its label.
a: Q
(Q: 114%, P: 70%)
